property.measured: melting point

**Query** Look up melting point for this compound: `CCOC(=O)c1conc1-c1ccc(F)c(Br)c1`
**Result** 96 to 97 °C

**Query** Form field: reported melting point of `CS(=O)(=O)c1ccnc(Oc2cc(C#N)cc(C#N)c2)n1`
**Result** 189 to 191 °C

**Query** Name the reported melting point value associated with the compound `COc1ccccc1NC(=O)Nc1nc(Nc2ccc(-c3ccccc3)cc2)nc(N(CCC(=O)O)Cc2ccc(Cl)c(Cl)c2)n1`
**Result** 215 to 220 °C

====

property.measured: melting point

**Query** So what does the record say about melting point for `CCNC(=O)c1cc(NS(=O)(=O)c2ccc(C(F)(F)F)cn2)ccc1Oc1cncc(Cl)c1` ?
**Result** 147 to 148 °C

**Query** // lookup melting point for `Cc1cc(CCCCCCCCCCc2cc(C)c(O)c(C(C)(C)C)c2)cc(C(C)(C)C)c1O`
**Result** 96 to 98 °C

**Query** Need melting point of `Cc1nc(N2CCc3nc(C)sc3CC2)c([N+](=O)[O-])c(=O)[nH]1` , thanks.
**Result** > 200 °C

**Query** Request the reported melting point associated with O=c1nc(N2CCCC(O)C2)sc2ncccc12 (configuration not stated)
**Result** 208 to 211 °C

**Query** So what does the record say about melting point for `CS(=O)(=O)N1CCN(c2ccc(C(=O)CCc3ccc(N)cc3)cc2)CC1` ?
**Result** 166 to 170 °C

**Query** Which melting point value belongs to `CS(=O)(=O)c1nc(OCc2ccccc2)cc(C(F)(F)F)n1` ?
**Result** 115 to 118 °C

**Query** Look at this compound and give its reported melting point. `O=C1CN=C(c2ccccc2)O1`
**Result** 83 to 86 °C

**Query** For the compound shown here, CSC(CC(=O)O)c1ccccc1 (configuration not stated) , give the reported melting point.
**Result** 75 to 77 °C

**Query** Given the entry CC(C)(C)OC(=O)[C@H]1CC[C@@H](c2ccccc2)N1C(=O)CNC(=O)Nc1cccc(C(=O)OCc2ccccc2)c1 (racemic) , report its measured melting point.
**Result** 75 °C

**Query** Would you mind telling me what melting point value was observed for `O=C(O)c1cccc2c1CCc1cc(O)ccc1S2` ?
**Result** 210 to 211 °C

**Query** // query melting point value for entry `CCOC(=O)c1cc(O)n2c(C)nnc2n1`
**Result** 201 to 203 °C

**Query** Entry C=C(CCl)C(C(=O)OC(c1ccccc1)c1ccccc1)N1C(=O)C2N=C(Cc3ccccc3)OC21 (configuration not stated) has what melting point?
**Result** 82 to 83 °C

====

property.measured: melting point

**Query** Returns the measured melting point for the input compound. Input: `O=S(=O)(c1ccccc1)S(=O)(=O)c1ccccc1`
**Result** 142 to 144 °C

**Query** Look at this compound and give its reported melting point. NC(=O)c1cccnc1N1CCN(CC(O)CO)CC1 (stereo unspecified)
**Result** 140 to 142 °C

**Query** Reported melting point for `BrCc1ccc(-c2cnn(-c3ccc(CBr)cc3)n2)cc1` : what is it?
**Result** 144 to 145 °C

**Query** Request the reported melting point associated with CC(NC(=O)C(NC(=O)c1ccccc1)SC(=O)c1ccccc1)C(=O)N1CCCC1C(=O)O (stereo unspecified)
**Result** 185 to 188 °C

**Query** Requested read-out: melting point. Entry: CC(C)(C)OC(=O)Oc1ccc(C(C(=O)OC(c2ccccc2)c2ccccc2)N2CC(N)C2=O)cc1 (stereo unspecified)
**Result** 120 to 122 °C

**Query** Sample `COCN1C(=O)CN=C(c2ccccc2)c2cc(NO)ccc21` — what was its melting point?
**Result** 168 to 170 °C

**Query** Entry under review: CCCCCCOC(Cc1ccc(OCCc2nc(-c3ccccc3)oc2C)c2ccsc12)C(=O)O (stereo unspecified) . Reported melting point?
**Result** 79 to 82 °C

**Query** Which measured melting point value corresponds to `CN(C)C(=O)CN1CCC(c2ccc(Nc3nc4c(-c5cnn(-c6ccc(F)cc6)c5)cccn4n3)cc2)CC1` ?
**Result** 131 to 133 °C

**Query** # melting point lookup, item `Cc1ccc(Cc2cnc(CCCSCc3cc(CN(C)C)ccn3)[nH]c2=O)cn1`
**Result** 110 to 112 °C

**Query** Report melting point for `Oc1cc2c(cc1CCc1cccs1)OCC2` please.
**Result** 79 to 85 °C

**Query** # melting point lookup, item `O=C(COc1ccc(Cl)cc1Cl)C(=C1SCCCN1Cl)[N+](=O)[O-]`
**Result** 103 to 105 °C

**Query** Which value of melting point has been reported for `Oc1c(Cc2ccccc2)cc(Br)c2ccccc12` in the records?
**Result** 123 to 125 °C

**Query** I have this compound here, `COc1ccc(CN2CCN(C3=NC4(C=CC(=O)C=C4)C(c4ccc(OC)cc4)=C3)CC2)cc1` , and I need its recorded melting point.
**Result** 142 °C

**Query** Fill blank: measured melting point of the compound COc1c(Cl)ccc(-c2nc(N)c(C(C)OC)c(C(=O)O)n2)c1F (stereo unspecified) is ____.
**Result** 165 to 167 °C

**Query** Quick one: melting point of COc1ccc(N(CCCC(=O)O)C(=O)C(C)N(C(=O)c2ccc(Cl)cc2Cl)c2ccc(OC)cc2)cc1 (stereo unspecified) ?
**Result** 159 to 160 °C

**Query** What does the data say about its melting point? Entry: `CCC(=Cc1cccc([N+](=O)[O-])c1)C(=O)Oc1ccc(OC)cc1`
**Result** 65 to 66 °C
